- Test system: MEK2
- Construct: gene MAP2K2
- CONDITION_PARAMETERS: concentration: 1 μM, replicates: in singlicate; n = 1
MEASUREMENT_NAME: %Inh (%)
Write down the numeric answer in % and omit the unit.

Sample records with %Inh:
SMI: O=C(Nc1ccccc1)Nc1ccc(Oc2ccc3nccn3n2)cc1
%Inh [%]: 32

SMI: NC(=O)c1sc(-n2cnc3ccccc32)cc1OCc1ccccc1F
%Inh [%]: 0

SMI: COc1ccc(-c2oc3ncnc(N)c3c2-c2ccc(OC)cc2)cc1
%Inh [%]: 0

SMI: Clc1ccc(-c2cc(-c3c[nH]nc3-c3ccccn3)ccn2)cc1
%Inh [%]: 0

SMI: Cl.c1ccc(Cn2ccc3cc(Nc4ncnc5ccccc45)ccc32)cc1
%Inh [%]: 6

SMI: Cn1ccc2ncnc(Nc3ccc(Oc4cccc(Cl)c4)c(Cl)c3)c21
%Inh [%]: 31

SMI: CCC(CC)(CC)n1cnc2c(N)ncnc21
%Inh [%]: 21

SMI: O=C(NCCCN1CCCC1=O)c1cnc(NCc2cc(Cl)ccc2Cl)nc1NC1CCNCC1
%Inh [%]: 3

SMI: O=c1cc(N2CCOCC2)nc2n(Cc3cccc(Cl)c3)ccn12
%Inh [%]: 0

SMI: Nc1nc(-c2ccccn2)c(-c2ccnc3ccccc23)s1
%Inh [%]: 12

Task: State the recorded %Inh for this entry: `CN1CCC(n2cnc(-c3ccc(F)cc3)c2-c2ccnc(NC3CCNCC3)n2)CC1`
Result: 0

Task: // %Inh lookup, key: `FC(F)(F)c1cc(Nc2nccc(-c3c(-c4ccc(Cl)cc4)nn4ncccc34)n2)ccc1Cl`
Result: 21

Task: // lookup %Inh for `CCc1nc(-c2cccc(N(C)S(=O)(=O)c3ccccc3)c2)c(-c2ccnc(Nc3ccc(N4CCN(C(C)=O)CC4)nc3)n2)s1`
Result: 3

---

Recorded measurements of %Inh, one per entry
- Test system: RIPK5
- CONDITION_PARAMETERS: concentration: 1 μM, replicates: in singlicate; n = 1
# unit: % | format: bare number

Please review the entries below; each comes with its answer.
COMPOUND: Nc1nc(-c2ccc3c(N)n[nH]c3c2)cc(N2CCC[C@@H](C(=O)Nc3ccccc3)C2)n1.O=C(O)C(F)(F)F.O=C(O)C(F)(F)F [GSK2288359]
MEASURED_TARGET: RIPK5
%Inh [%]: 3
--
COMPOUND: COc1cc2ncnc(Nc3ccc(OCc4ccccc4Br)c(Cl)c3)c2cc1OC.Cl [GI261590]
MEASURED_TARGET: RIPK5
%Inh [%]: 0
--
COMPOUND: Cc1cc(N2CCC(NS(=O)(=O)c3ccc(F)cc3)CC2)nc(Nc2cccc(C#N)c2)n1.O=C(O)C(F)(F)F [GSK1653537]
MEASURED_TARGET: RIPK5
%Inh [%]: 0
--
COMPOUND: Cl.O=S(=O)(c1cccc(F)c1)c1ccc(Nc2ncnc3cc(Br)sc23)cc1Cl [GSK306886]
MEASURED_TARGET: RIPK5
%Inh [%]: 16
--
COMPOUND: C[C@H]1CC[C@@H](C(=O)Nc2ccccc2)CN1c1cc(-c2ccc3c(N)n[nH]c3c2)nc(N)n1 [GSK2283293]
MEASURED_TARGET: RIPK5
%Inh [%]: 0
--
COMPOUND: c1ccc(-c2ccc3c(-c4ccnc(Nc5ccc6c(c5)OCCO6)n4)cnn3n2)cc1 [GW818941]
MEASURED_TARGET: RIPK5
%Inh [%]: 0

Attention now shifts to the item below.
Task: Item under review: O=C(Nc1n[nH]c2nc(-c3ccco3)c(Br)cc12)c1ccc(CN2CCCC2)cc1.O=C(O)[C@H](O)[C@@H](O)C(=O)O [SB-742352] . Reported %Inh?
Result: 0

---

%Inh listing for selected compounds.
- Tested on: EPHA6
- CONDITION_PARAMETERS: concentration: 1 μM, replicates: in singlicate; n = 1
The reply should contain only the number, in %.

Reference set (8 entries):
COMPOUND: CNc1nccc(-c2c(-c3ccc(F)cc3)ncn2C2CCN(C)CC2)n1
MEASURED_TARGET: EPHA6
MEASUREMENT_NAME: %Inh
UNIT_INFO: %
NUMERIC_RESULT: 0
//
COMPOUND: Cl.c1ccc(Cn2ccc3cc(Nc4ncnc5ccccc45)ccc32)cc1
MEASURED_TARGET: EPHA6
MEASUREMENT_NAME: %Inh
UNIT_INFO: %
NUMERIC_RESULT: 0
//
COMPOUND: c1ccc(-c2ccc3c(-c4ccnc(Nc5ccc6c(c5)OCCO6)n4)cnn3n2)cc1
MEASURED_TARGET: EPHA6
MEASUREMENT_NAME: %Inh
UNIT_INFO: %
NUMERIC_RESULT: 12
//
COMPOUND: Fc1ccc(-c2ncn(CCCNCc3ccccc3)c2-c2ccncc2)cc1
MEASURED_TARGET: EPHA6
MEASUREMENT_NAME: %Inh
UNIT_INFO: %
NUMERIC_RESULT: 23
//
COMPOUND: O=C(Nc1ccccc1F)NC1CCN(c2ccnc(Nc3ccc(F)cc3)n2)C1 (stereo not drawn)
MEASURED_TARGET: EPHA6
MEASUREMENT_NAME: %Inh
UNIT_INFO: %
NUMERIC_RESULT: 4
//
COMPOUND: FC(F)(F)c1ccc(-c2nn3ncccc3c2-c2ccnc(Nc3cccc(C(F)(F)F)c3)n2)cc1
MEASURED_TARGET: EPHA6
MEASUREMENT_NAME: %Inh
UNIT_INFO: %
NUMERIC_RESULT: 78
//
COMPOUND: Clc1cccc(-c2nc(Nc3ccncc3)c3ccccc3n2)c1
MEASURED_TARGET: EPHA6
MEASUREMENT_NAME: %Inh
UNIT_INFO: %
NUMERIC_RESULT: 0
//
COMPOUND: COc1cc2c(Nc3cccc(NC(=O)c4ccccc4)c3)ncnc2cc1OCCCN1CCOCC1
MEASURED_TARGET: EPHA6
MEASUREMENT_NAME: %Inh
UNIT_INFO: %
NUMERIC_RESULT: 2

Task: Look up %Inh for this compound: `FC(F)(F)c1cc(Nc2nccc(-c3c(-c4ccc(Cl)cc4)nn4ncccc34)n2)ccc1Cl`
Result: 0

Task: Sample `NC(=O)c1sc(-n2cnc3ccccc32)cc1OCc1ccccc1F` — what was its %Inh?
Result: 0

Task: Could you share which %Inh value was measured for `C[C@H]1CC[C@@H](C(=O)Nc2ccccc2)CN1c1cc(-c2ccc3c(N)n[nH]c3c2)nc(N)n1` ?
Result: 15

---

- Test system: CSNK1A1;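 also: kd values determined as follow-up on hits from a single-replicate KINOMEscan panel screen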
pKd: −log10 of the molar value.
The threshold is inclusive: pKd of exactly 7 counts as condition met; values below receive condition not met.

MOLECULE: Nc1nc(-c2ccccn2)c(-c2ccnc3ccccc23)s1 [GW548057]
CLASS_ASSIGNMENT: condition not met
--
MOLECULE: CNc1nccc(-c2c(-c3ccc(F)cc3)ncn2C2CCN(C)CC2)n1 [SB-222903]
CLASS_ASSIGNMENT: condition met
--
MOLECULE: CC(C)N1CCC(n2cnc(-c3ccc(F)cc3)c2-c2ccnc(N)n2)CC1 [SB-223132]
CLASS_ASSIGNMENT: condition met

Task: For this molecule, is measured pKd 7 or higher? `CCc1nc(-c2cccc(C)c2)c(-c2ccnc(NC(=O)c3ccccc3)c2)s1`
Result: condition not met

---

Property: %Inh; scope: individual compounds
- System: RIOK1
- CONDITION_PARAMETERS: concentration: 1 μM, replicates: in singlicate; n = 1
Write it as a number; the unit % goes unstated.

Previously resolved entries follow.
COMPOUND: O=C(Nc1n[nH]c2nc(-c3ccco3)c(Br)cc12)c1ccc(CN2CCCC2)cc1.O=C(O)[C@H](O)[C@@H](O)C(=O)O
%Inh (%): 0
--
COMPOUND: CN1c2ccc(-c3ccc(C(=O)NCCO)cc3)cc2-c2[nH]ncc2S1(=O)=O
%Inh (%): 30
--
COMPOUND: CN1CCC(n2cnc(-c3ccc(F)cc3)c2-c2ccnc(NC3CCNCC3)n2)CC1
%Inh (%): 25
--
COMPOUND: Cl.Fc1ccccc1COc1ccc(Nc2ncnc3ccc(-c4nnc(C(F)(F)F)o4)cc23)cc1Cl
%Inh (%): 22
--
COMPOUND: Clc1cc(Nc2ncnc3cc[nH]c23)ccc1OCc1ccccn1
%Inh (%): 24
--
COMPOUND: CC(=O)Nc1n[nH]c2ncc(-c3ccccc3)cc12
%Inh (%): 38
--
COMPOUND: Fc1cccc(COc2ccc(Nc3ncnc4cc[nH]c34)cc2Cl)c1
%Inh (%): 21
--
COMPOUND: Cl.O=S(=O)(c1cccc(F)c1)c1ccc(Nc2ncnc3cc(Br)sc23)cc1Cl
%Inh (%): 9

Task: Can you share its %Inh? I mean this compound: `COc1ccc(-c2oc3ncnc(N)c3c2-c2ccc(OC)cc2)cc1`
Result: 0

Task: Give the measured %Inh of `Nc1nc(-c2ccccn2)c(-c2ccnc3ccccc23)s1` .
Result: 19

Task: Which %Inh is listed for `O=C(c1ccc(-c2cc(-c3c[nH]nc3-c3ccccn3)ccn2)cc1)N1CCCC1` ?
Result: 10

Task: Value lookup for %Inh; key = `O=C(CCO)NCCn1ccc2ncnc(Nc3ccc(Oc4cccc(C(F)(F)F)c4)c(Cl)c3)c21`
Result: 0
